Data provenance: patent US20230192700A1

Target: CDK12/CyclinK (Homo sapiens)
Construct: His-CDK12 (aa Q696-S1082)
Sequence (Q9NYV4 with tags, fused parts or gaps): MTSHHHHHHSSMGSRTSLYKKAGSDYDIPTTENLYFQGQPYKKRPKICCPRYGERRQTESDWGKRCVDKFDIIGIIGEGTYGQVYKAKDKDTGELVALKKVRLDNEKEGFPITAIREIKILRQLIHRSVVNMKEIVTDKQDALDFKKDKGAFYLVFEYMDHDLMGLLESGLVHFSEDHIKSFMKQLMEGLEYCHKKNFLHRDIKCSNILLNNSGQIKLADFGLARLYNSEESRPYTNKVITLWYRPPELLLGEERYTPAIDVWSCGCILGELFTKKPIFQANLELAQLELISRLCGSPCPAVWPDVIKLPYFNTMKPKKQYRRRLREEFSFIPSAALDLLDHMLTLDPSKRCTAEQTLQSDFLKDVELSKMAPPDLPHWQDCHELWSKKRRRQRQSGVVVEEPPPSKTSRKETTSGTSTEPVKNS
Sequence (O75909 with tags, fused parts or gaps partner limits assumed): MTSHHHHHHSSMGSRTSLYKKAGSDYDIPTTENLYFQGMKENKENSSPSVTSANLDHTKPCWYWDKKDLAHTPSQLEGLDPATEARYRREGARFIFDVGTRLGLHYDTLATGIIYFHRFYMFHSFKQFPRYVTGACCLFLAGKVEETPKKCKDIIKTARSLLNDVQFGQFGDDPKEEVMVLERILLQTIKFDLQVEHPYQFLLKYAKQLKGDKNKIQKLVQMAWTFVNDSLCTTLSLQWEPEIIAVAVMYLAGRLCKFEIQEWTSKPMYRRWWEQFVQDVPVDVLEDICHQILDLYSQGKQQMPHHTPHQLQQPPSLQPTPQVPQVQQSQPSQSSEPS
Assay: CDK12/CycK high ATP kinase assay (TR-FRET)
Conditions: 2 mM ATP (high ATP); median; read-out: CDK12/CyclinK, 2 mM ATP (high ATP), IC50 - [mol/l] (median)
pIC50: −log10 of the molar value.
Readout name: pIC50

INSERT INTO measurements (compound, readout_name, result) VALUES
  ('O[C@H]1C[C@H](Cn2nc(NCc3nc4ccccc4[nH]3)c3ncc(C4CC4)nc32)C1', 'pIC50', '< 4.70'),
  ('c1ccc2[nH]c(CNc3nn(CC4CCC4)c4nc(C5CC5)cnc34)nc2c1', 'pIC50', '< 4.70'),
  ('OC1(Cn2nc(NCc3nc4ccccc4[nH]3)c3ncc(C4CC4)nc32)CCC1', 'pIC50', '< 5.00'),
  ('c1ccc2[nH]c(CNc3nn(C4CCCC4)c4nc(C5CC5)cnc34)nc2c1', 'pIC50', '< 4.70'),
  ('CN1CCC(n2nc(NCc3nc4c(Cl)c(F)ccc4[nH]3)c3ncc(C4CC4)nc32)CC1', 'pIC50', '< 4.70'),
  ('c1ccc2[nH]c(CNc3nn(C4CC5(COC5)C4)c4nc(C5CC5)cnc34)nc2c1', 'pIC50', 4.95),
  ('CN1CCC(n2nc(NCc3nc4ccccc4[nH]3)c3ncc(C4CC4)nc32)C1 (racemic) [Example 35]', 'pIC50', '< 4.70'),
  ('OC1(Cn2nc(NCc3nc4ccccc4[nH]3)c3ncc(C4CC4)nc32)CCCC1', 'pIC50', '< 5.00'),
  ('OCC1(Cn2nc(NCc3nc4ccccc4[nH]3)c3ncc(C4CC4)nc32)CCC1', 'pIC50', '< 5.00'),
  ('CN1CCC(n2nc(NCc3nc4c(F)c(F)ccc4[nH]3)c3ncc(C4CC4)nc32)CC1', 'pIC50', '< 4.70'),
  ('O[C@H]1CC[C@@H](n2nc(NCc3nc4ccccc4[nH]3)c3ncc(C4CC4)nc32)CC1', 'pIC50', '< 4.70'),
  ('COCCn1nc(NCc2nc3ccccc3[nH]2)c2ncc(C3CC3)nc21', 'pIC50', '< 4.70'),
  ('CN1CCC(n2nc(NCc3nc4ccccc4[nH]3)c3ncc(C4CC4)nc32)C1 (single isomer, unassigned) [Example 78]', 'pIC50', '< 4.70'),
  ('Fc1ccc2[nH]c(CNc3nn(C4CCOCC4)c4nc(C5CC5)cnc34)nc2c1', 'pIC50', '< 5.00'),
  ('CN1CCC(n2nc(NCc3nc4c(Br)cccc4[nH]3)c3ncc(C4CC4)nc32)CC1', 'pIC50', '< 4.70'),
  ('COC(C)(C)CCn1nc(NCc2nc3ccccc3[nH]2)c2ncc(C3CC3)nc21', 'pIC50', '< 4.70'),
  ('c1ccc2[nH]c(CNc3nn(C4CCOCC4)c4nc(C5CC5)cnc34)nc2c1', 'pIC50', '< 4.70');
